From: patent US11718618B2

Exercise: state measured CLint scaled at 0.5 μM for each of the compounds provided.
- Measurement protocol: Stability of compounds in human liver microsomes
- Assay type: in vitro ADME
- Test conditions: both sexes, liver microsomes, pH 7.4; calculated from HLM half-life, human; read-out: HLM Scaled Intrinsic Clearance
Field: numeric (mL/min/kg). Do not append units.

Entry [2H]C([2H])([2H])C([2H])([2H])Oc1cc2c(cc1OC)[C@H]1C[C@@H](O)[C@H](CC(C)(C)C)CN1CC2 , CLint scaled at 0.5 μM reported as 23.9

Sample COc1cc2c(cc1OCc1cccc(C#N)n1)CCN1C[C@@H](CC(C)(C)C)[C@H](O)C[C@H]21 ; CLint scaled at 0.5 μM observed: 8.01

Reported CLint scaled at 0.5 μM ( COc1cc2c(cc1OCCc1ccc(C(F)(F)F)cc1)CCN1C[C@@H](CC(C)(C)C)[C@H](O)C[C@H]21 ) = 34.6

Recorded CLint scaled at 0.5 μM (compound COc1cc2c(cc1OCC1(F)COCCOC1)CCN1C[C@@H](CC(C)(C)C)[C@H](O)C[C@H]21 ): 15.6
